biological target: T1, human MSLN-FL-his protein (human, UniProt Q13421 296-580); assay: ELISA, coated MSLN full-length;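 further: binding of chimeric antibodies to plate-bound antigen, read by TMB colour after acid stop, antibody incubated 2 h at 37 °C, negative control antibody run alongside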
T1 construct: also called human MSLN full-length protein; hMSLN-FL-his; not shown: His tag
T1 sequence (Q13421 other isoform, or with tags, fused parts or gaps): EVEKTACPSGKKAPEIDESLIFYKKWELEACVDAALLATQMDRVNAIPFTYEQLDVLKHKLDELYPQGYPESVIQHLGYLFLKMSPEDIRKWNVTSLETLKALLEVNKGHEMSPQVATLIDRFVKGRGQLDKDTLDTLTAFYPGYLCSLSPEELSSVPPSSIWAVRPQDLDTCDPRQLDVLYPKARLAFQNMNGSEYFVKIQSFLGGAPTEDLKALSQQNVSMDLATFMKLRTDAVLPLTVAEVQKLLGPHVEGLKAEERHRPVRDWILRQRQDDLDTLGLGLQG
Each entry below carries its recorded OD450 at 0.1 nM.

Known OD450 at 0.1 nM results, listed for orientation:
>  <BINDER>
S009-F2.58.8 (antibody, human IgG1, kappa, V domains shown, Human-murine chimeric antibody, human IgG1/kappa constant regions) VH: QVQLLQSGAELAKPGASVKLSCKASGYTFTSYWVHWVKQRPGQGLEWIGYINPNSGYTKYNQKFKDKATLTADKSSSTAYMQLSSLTYEDSAVYYCADHYYGSSRDYFDYWGQGTTLTVSS VL: QIVLTQSPAIMSASPGEKVTMTCSASSSVSYMYWYQQRPGSSPRLLIYDTSNLASGVPVRFSGSGSGTSYSLTISRMEAEDAATYYCQQWNSYPYTFGGGTKLEIKR

>  <OD450 at 0.1 nM>
0.4 OD450

$$$$
>  <BINDER>
S009-F2.39.3 (antibody, human IgG1, kappa, V domains shown, Human-murine chimeric antibody, human IgG1/kappa constant regions) VH: QVQLQQPGTELVKPGASVKLSCKASGYTFTNYWMHWVKQRPGQGLEWIGNINPSSGDSYYNERFMSKAKMTVDKSSSTAYMQLSSLTSEDSAVYYCARSGGLWLAFWGPGTLVTVSA VL: DIVMTQSPSSLAMSVGQKVTMSCKSSQTLLNSVSQNNYLAWYQQKPGQSPTLLVYFASTRESGVPDRFIGGGSGTDFTLTISSVQAEDLADYFCQQHYRTPYTFGGGTNLEIKR

>  <OD450 at 0.1 nM>
0.42 OD450

$$$$

Now for a further binder.
Input: Given the binder S009-F2.21.4 (antibody, human IgG1, kappa, V domains shown, Human-murine chimeric antibody, human IgG1/kappa constant regions) VH: EVQLQQSGPELVKPGASVKIPCKASGYTFTDYNMDWVKQSHGKSLEWIGDINPNNGGSIYNQRFKGKATLTVDKSSSTAYMELRSLTSEDSAVYYCARRAYYSTGYFDVWGTGTTVTVSS VL: QIVLTQSPALMSASPGEKVTITCSASSSISYMHWFQQKPGTSPKLWIYSTSTLASGVPARFSGSGSGTSYSLTISRMEAEDTATYYCQQRSSYPPTFGGGTKLEIKR , what is its reported OD450 at 0.1 nM?
Output: 1.93 OD450
